attribute_measured: pIC50
Give only the number. pIC50 is defined as minus log10 of concentration in molar units.

Measured pIC50 for this entry NCCS on MMP-9 (Homo sapiens, UniProt P14780): 3.70

* * *

- measured_target: MMP-10 (Homo sapiens)
- Sequence (P09238 99-476): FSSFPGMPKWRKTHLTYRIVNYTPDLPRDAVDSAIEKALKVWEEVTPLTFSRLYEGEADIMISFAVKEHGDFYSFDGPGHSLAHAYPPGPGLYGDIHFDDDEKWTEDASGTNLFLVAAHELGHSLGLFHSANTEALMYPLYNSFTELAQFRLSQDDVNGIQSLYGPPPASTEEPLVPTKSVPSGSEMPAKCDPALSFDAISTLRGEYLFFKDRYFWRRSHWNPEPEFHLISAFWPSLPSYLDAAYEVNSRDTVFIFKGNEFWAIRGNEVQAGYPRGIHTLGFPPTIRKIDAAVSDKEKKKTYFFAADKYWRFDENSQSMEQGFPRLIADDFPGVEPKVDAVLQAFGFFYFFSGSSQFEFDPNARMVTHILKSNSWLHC
attribute_measured: IC50 (µM)
Use µM as the unit, but write only the number.

Measured IC50 for this entry NCCS [Cysteamine] on MMP-10 (Homo sapiens): 310

* * *

Sequence of the target: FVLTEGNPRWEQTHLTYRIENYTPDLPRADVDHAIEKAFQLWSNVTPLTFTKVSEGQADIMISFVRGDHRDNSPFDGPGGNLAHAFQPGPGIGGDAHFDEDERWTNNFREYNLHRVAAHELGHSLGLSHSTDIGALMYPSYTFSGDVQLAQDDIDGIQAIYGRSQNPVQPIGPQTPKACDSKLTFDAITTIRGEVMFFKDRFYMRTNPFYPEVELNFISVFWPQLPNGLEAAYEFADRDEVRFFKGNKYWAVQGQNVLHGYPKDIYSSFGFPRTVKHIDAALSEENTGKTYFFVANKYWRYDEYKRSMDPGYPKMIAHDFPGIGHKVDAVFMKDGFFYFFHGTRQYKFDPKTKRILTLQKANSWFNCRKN
attribute_measured: IC50 (µM)
Use µM as the unit, but write only the number.

IC50 for NCCS [Cysteamine] is 290

* * *

- measured_target: MMP-8 (Homo sapiens)
- Construct: purchased Enzo Life Science, Farmingdale, NY
- Sequence (P22894 101-467): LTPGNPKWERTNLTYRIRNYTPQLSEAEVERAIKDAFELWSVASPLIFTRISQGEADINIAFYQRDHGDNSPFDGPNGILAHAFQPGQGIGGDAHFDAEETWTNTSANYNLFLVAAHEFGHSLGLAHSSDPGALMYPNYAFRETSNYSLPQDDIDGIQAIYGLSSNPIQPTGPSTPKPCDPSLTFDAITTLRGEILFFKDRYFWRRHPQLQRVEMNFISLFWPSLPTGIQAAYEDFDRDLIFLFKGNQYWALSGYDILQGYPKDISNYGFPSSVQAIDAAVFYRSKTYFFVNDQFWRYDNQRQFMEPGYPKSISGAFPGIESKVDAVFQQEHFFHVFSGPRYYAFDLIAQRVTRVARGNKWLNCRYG
- method_notes: MMP profiling, IC50 (fluorimetric MMP inhibitor profiling kit)
- Assay type: biochemical
attribute_measured: pIC50
Give only the number. pIC50 is defined as minus log10 of concentration in molar units.

pIC50 for NCCS is 3.62

* * *

Sequence of the target: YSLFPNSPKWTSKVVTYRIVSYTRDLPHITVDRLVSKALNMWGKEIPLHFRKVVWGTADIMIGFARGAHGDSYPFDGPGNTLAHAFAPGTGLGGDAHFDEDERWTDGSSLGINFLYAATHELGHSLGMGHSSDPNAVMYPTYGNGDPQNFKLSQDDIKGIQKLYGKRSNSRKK
attribute_measured: IC50
A bare number is not enough; add the unit after it.

IC50 for NCCS is 40 µM

* * *

- measured_target: MMP-12 (Homo sapiens)
- Sequence (P39900 106-470): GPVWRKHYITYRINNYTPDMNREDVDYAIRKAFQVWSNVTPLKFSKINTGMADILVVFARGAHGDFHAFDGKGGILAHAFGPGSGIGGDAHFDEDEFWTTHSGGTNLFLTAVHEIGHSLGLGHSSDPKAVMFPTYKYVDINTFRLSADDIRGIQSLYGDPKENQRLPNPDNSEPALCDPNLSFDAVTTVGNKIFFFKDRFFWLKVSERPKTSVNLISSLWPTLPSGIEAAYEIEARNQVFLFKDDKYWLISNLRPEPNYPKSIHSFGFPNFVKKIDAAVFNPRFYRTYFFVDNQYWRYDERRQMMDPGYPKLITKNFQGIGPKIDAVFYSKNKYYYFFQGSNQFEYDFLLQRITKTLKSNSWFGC
attribute_measured: pIC50
Give only the number. pIC50 is defined as minus log10 of concentration in molar units.

pIC50 for NCCS is 4.22

* * *

- measured_target: MMP-2 (Homo sapiens, UniProt P08253)
- Sequence (P08253 110-660): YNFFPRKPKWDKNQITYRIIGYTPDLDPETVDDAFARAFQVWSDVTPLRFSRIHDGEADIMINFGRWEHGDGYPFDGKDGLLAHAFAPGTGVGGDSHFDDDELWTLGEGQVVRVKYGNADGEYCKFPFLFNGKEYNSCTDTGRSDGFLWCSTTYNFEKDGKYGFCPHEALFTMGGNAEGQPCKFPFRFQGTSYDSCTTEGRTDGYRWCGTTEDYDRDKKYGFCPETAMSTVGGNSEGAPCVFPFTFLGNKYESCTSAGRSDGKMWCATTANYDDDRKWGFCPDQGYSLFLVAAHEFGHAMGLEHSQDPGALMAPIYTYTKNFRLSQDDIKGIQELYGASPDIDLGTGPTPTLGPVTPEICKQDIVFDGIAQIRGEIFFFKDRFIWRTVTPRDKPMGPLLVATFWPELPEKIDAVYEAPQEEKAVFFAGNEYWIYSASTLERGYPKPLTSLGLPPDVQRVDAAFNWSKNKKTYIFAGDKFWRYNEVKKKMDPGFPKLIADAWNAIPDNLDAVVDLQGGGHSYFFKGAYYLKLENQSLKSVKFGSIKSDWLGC
attribute_measured: pIC50
Give only the number. pIC50 is defined as minus log10 of concentration in molar units.

pIC50 for NCCS is 4.42
